Overview of reported BMC10 any morphological effect or mortality across a group of compounds:
- Test system: Danio rerio embryo
- Protocol notes: BMC10 any morphological effect or mortality at 120 hpf; higher = less toxic
Write it as a number; the unit µM goes unstated.

- Compound: "O=C(Nc1ncc([N+](=O)[O-])s1)c1ccccc1O [Tizoxanide]"
  Measured: 29.5

Now for another entry.
Query BMC10 any morphological effect or mortality for FC(F)(F)c1cc(C(F)(F)F)c2ccc3nc(-c4nnco4)cn3c2n1 [RO8191] 26.9

----------
Overview of reported BMC10 any morphological effect or mortality across a group of compounds:
- Test system: Danio rerio embryo
- Protocol notes: BMC10 any morphological effect or mortality at 120 hpf; higher = less toxic

- Structure as smiles: "COc1cccc2c1C(=O)c1c(O)c3c(c(O)c1C2=O)C[C@@](O)(C(=O)CO)C[C@@H]3O[C@H]1C[C@H](N)[C@H](O)[C@H](C)O1.Cl"
  Measured: "3.18 µM"

Query BMC10 any morphological effect or mortality for CC(C)Cn1cnc2c(N)nc3ccccc3c21 > 100 µM

Query BMC10 any morphological effect or mortality for CCC(=O)c1ccc(F)c([C@@H]2C[C@@H]2NC(=O)Nc2ccc(C#N)cn2)c1O > 100 µM

Query BMC10 any morphological effect or mortality for Cl.N=c1ccn2c(n1)O[C@H]1[C@H](O)[C@@H](CO)O[C@H]12 > 100 µM

Query BMC10 any morphological effect or mortality for Nc1ncnc2c1ncn2[C@@H]1O[C@H](CO)[C@@H](O)[C@@H]1O > 100 µM

Query BMC10 any morphological effect or mortality for CN1CC[C@H](c2c(O)cc(O)c3c(=O)cc(-c4ccccc4Cl)oc23)[C@H](O)C1.Cl 1.2 µM

Query BMC10 any morphological effect or mortality for Cc1ccc2c(=O)c3cccc(CC(=O)O)c3oc2c1C > 100 µM
